UniProt P14780: reported pKi for various molecules.
Sequence (P14780 whole entry): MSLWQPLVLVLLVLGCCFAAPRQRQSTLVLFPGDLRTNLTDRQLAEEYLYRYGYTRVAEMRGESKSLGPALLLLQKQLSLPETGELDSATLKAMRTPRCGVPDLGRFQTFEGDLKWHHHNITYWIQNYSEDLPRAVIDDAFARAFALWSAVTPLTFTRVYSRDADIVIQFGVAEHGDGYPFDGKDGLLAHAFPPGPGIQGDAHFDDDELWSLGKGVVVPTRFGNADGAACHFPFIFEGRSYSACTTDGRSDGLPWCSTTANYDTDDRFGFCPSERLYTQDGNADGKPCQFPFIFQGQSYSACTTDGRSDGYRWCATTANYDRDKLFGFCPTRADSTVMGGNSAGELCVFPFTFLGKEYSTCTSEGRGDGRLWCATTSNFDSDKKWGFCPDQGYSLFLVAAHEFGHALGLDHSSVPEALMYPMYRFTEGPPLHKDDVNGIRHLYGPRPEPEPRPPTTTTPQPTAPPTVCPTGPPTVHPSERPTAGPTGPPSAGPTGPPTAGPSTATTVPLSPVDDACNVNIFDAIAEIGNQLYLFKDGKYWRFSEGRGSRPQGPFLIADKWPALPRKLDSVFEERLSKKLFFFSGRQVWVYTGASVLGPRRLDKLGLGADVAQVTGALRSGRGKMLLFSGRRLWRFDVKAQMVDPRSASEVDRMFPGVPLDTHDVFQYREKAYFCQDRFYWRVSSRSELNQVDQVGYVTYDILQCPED
In plain terms, pKi is the concentration in mol/L turned into minus its base-10 logarithm.

Worked cases, answers included:
Ask | Quick one: pKi of CCOP(=O)(c1ccc(C)cc1)N1Cc2ccccc2CC1C(=O)NO (stereo unspecified) ?
Reply | 7.38

Ask | Could you share which pKi value was measured for CCOP(=O)(c1ccc(N)cc1)N1Cc2ccccc2CC1C(=O)NO (stereo unspecified) ?
Reply | 7.02

Ask | Request the reported pKi associated with CCCCCCOP(=O)(c1ccc(OC)cc1)N1Cc2ccccc2CC1C(=O)NO (stereo unspecified)
Reply | 8.18

Shifting focus to the molecule that follows.
Ask | # input molecule: CCOP(=O)(CCc1ccccc1)N1Cc2ccccc2CC1C(=O)NO (stereo unspecified) ; wanted: its pKi
Reply | 7.42
